Target: T1, mf TFRC ecto-mmh (REGN2054), monomeric monkey (cyno) Tfrc ectodomain with C-terminal myc-myc-hexahistidine tag (monkey (cyno), Macaca fascicularis, UniProt H9EXL1 89-760)
T1 construct: range 89-760; also called mfTfR-mmh; mfTFR-mmh
T1 sequence (chain, as listed by the source): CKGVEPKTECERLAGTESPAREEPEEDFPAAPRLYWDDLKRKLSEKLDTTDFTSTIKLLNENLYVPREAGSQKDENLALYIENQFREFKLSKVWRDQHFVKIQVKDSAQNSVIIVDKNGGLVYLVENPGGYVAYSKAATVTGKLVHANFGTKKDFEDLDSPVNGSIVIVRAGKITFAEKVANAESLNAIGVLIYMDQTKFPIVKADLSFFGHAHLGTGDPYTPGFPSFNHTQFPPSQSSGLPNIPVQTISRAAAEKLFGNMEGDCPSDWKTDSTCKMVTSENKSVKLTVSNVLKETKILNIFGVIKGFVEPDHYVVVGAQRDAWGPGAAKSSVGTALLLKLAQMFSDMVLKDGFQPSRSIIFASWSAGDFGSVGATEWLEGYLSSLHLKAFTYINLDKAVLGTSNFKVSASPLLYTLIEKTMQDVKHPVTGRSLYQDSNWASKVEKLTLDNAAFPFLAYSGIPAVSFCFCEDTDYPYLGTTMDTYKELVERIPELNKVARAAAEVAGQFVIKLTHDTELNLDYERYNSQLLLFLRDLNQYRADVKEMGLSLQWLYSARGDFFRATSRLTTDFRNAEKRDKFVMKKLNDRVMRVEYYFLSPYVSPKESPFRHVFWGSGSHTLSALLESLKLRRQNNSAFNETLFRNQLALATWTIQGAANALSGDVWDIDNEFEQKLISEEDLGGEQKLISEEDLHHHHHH
Experiment: SPR (Biacore), mAb captured on anti-human Fc, 100 nM mfTfR-mmh, 25 C
measured.endpoint: 100 nM Ag Bound (RU)
Give bare numbers, in RU.

* 12799B (antibody, human IgG1, kappa, V domains shown, Tested as bivalent human IgG1 from CHO primary supernatant; also called H1H12799B; REGN17508) VH: QITLKESGPTLVKPTQTLTLTCTFSGFSLSTSGVGVVWIRQPPGKALEWLALIYWNDHKRYSPSLGSRLTITKDTSKNQVVLTMTNMDPVDTATYYCAHYSGSYSYYYYGLDVWGQGTTVTVSS VL: DIQMTQSPSSVSASVGDRVTITCRASQGIASWLAWYQQKPGKAPELLIYAASSLQGGVPSRFSGSGSGTDFTLTISSLQPEDFAIYYCQQANYFPWTFGQGTKVEIKR | 651
* 12808B (antibody, human IgG1, kappa, V domains shown, Tested as bivalent human IgG1 from CHO primary supernatant) VH: QLQLQESGPGLVKPSETLSLTCTVSGESISSNTYYWGWIRQPPGKGLEWIGSIDYSGTTNYNPSLKSRVTISVDTSRNHFSLRLRSVTAADTAVYYCAREWGNYGYYYGMDVWGQGTTVTVSS VL: DIQMTQSPSSLSASVGDRVTINCRASQGIRNDLGWYQQKPGKAPKRLIYAASSLQSGVPLRFSGSGSGTEFTLTINNLQPEDFATYYCLSHNSYPWTFGQGTKVEIKR | 626

Switching to the query record.
// 100 nM Ag Bound (RU) lookup, binder = 12801B (antibody, human IgG1, kappa, V domains shown, Tested as bivalent human IgG1 from CHO primary supernatant) VH: EVQLLESGGALVQPGGSLRLSCAASGFTFTSYAMHWVRQAPGKGLEWVSSIRGSGGGTYSADSVKGRFTISRDNSRDTLYLQMNSVRAEDTAVYYCARSHDYGAFDFFDYWGQGTLVTVSS VL: DIQMTQSPSSLSASVGDRVTITCRASQGIRTDLGWYQQKPGKAPKRLIYAASSLQSGVPSRFSGSGSGTEFTLTISSLRPEDFATFYCLQYNSYPLTFGGGTKVEIKR , result: 159
